The following compounds are listed with their measured GI50 values.
- Test system: SF-295
- assay-procedure: NCI tumour cell line growth inhibition, 48 h
Calls of active or inactive are those of the source. No stated cut-off is given here; in the data, active = GI50 up to about 1.1 µM and inactive = higher.

{"structure-smiles": "CCc1cccc(C)c1NC(=O)CCc1nnc2s/c(=C\\c3cccc4ccccc34)c(=O)n12", "target-of-assay": "SF-295", "GI50": "71.1 µM (inactive)"}

State its GI50 on SF-295: `CCn1c(O)c(C(=O)Nc2cccs2)c(=O)n(CC)c1=S` 11.7 µM (inactive)

State its GI50 on SF-295: `Cc1c(C)c(S(=O)(=O)N(CCCCCN)OCCCN)c(C)c2c1OC(C)(C)CC2` 17.4 µM (inactive)

State its GI50 on SF-295: `[O-][n+]1onc2c1/C(=N/O)CCC2` > 100 µM (inactive)

State its GI50 on SF-295: `Nc1ccc(/N=N\c2ccc(-c3ccc(O)cc3)cc2)c2ccc(S(=O)(=O)O)cc12` > 100 µM (inactive)

The values you see were collected from ChEMBL document CHEMBL1201862.
